Reported MIC values, Trichophyton rubrum.
Answers are plain numbers, in µg/mL.

Some solved entries appear below for comparison.
Molecule: CCC(C)(C)c1ccc(CN(C)Cc2cccc3ccccc23)cc1 [Example 12]
MIC / µg/mL: 0.006
//
Molecule: CN(Cc1ccc(C(C)(C)C)cc1)Cc1cccc2c1CCCC2 [Example 39]
MIC / µg/mL: 0.39
//
Molecule: CN(Cc1ccc(C(C)(C)C)cc1)Cc1ccc(Br)c2ccccc12 [Example 6]
MIC / µg/mL: 0.05
//
Molecule: Cc1cccc2c(CN(C)Cc3ccc(C(C)(C)C)cc3)csc12 [Example 33]
MIC / µg/mL: 0.1

Turning now to a further record.
*Q* Given the entry Cc1ccc(CN(C)Cc2cccc3ccccc23)cc1C [Example 25] , report its measured MIC.
*A* 0.39

###

System: Trichophyton interdigitale
Field 'label' (enum: t / f). Set to t when MIC is strictly under 0.1 µg/mL; else f.

The following molecules have reported results that may help.
Molecule: Cc1ccc(CN(C)Cc2cccc3ccccc23)cc1 [Example 15]
Answer label: f
//
Molecule: Cc1ccc(CN(C)Cc2cccc3ccccc23)cc1C [Example 25]
Answer label: f

*Q* Answer whether the molecule CN(Cc1ccc(C(C)(C)C)cc1)Cc1ccc(F)c2ccccc12 [Example 4] has MIC strictly less than 0.1 µg/mL
*A* t

*Q* Can you check CCN(Cc1ccc(C(C)(C)C)cc1)Cc1cccc2ccccc12 [Example 18] next?
*A* t

*Q* Similarly, CN(Cc1ccc(C(C)(C)C)cc1)Cc1ccc(I)c2ccccc12 [Example 7] ?
*A* f

###

System: Trichophyton rubrum
Test: In vitro antifungal activity test (Test Example 1), Sabouraud's agar, Trichophyton rubrum
Type: cell-based
Conditions: 168 h; (c) Trichophyton rubrum; 27° C., 7 days; read-out: minimal growth-inhibitory concentration (MIC)
# note: exactly 0.1 µg/mL is not below, so it is false; use true for MIC strictly under it

Molecule: Cc1cc(C)cc(CN(C)Cc2cccc3ccccc23)c1
Answer label: false
//
Molecule: CN(Cc1ccc(C(C)(C)C)cc1)Cc1cccc2ccccc12.Cl
Answer label: true
//
Molecule: CN(Cc1ccc(C(C)(C)C)cc1)Cc1ccc(I)c2ccccc12
Answer label: false

*Q* Decide: MIC of Cc1ccc(CN(C)Cc2ccc(C(C)(C)C)cc2)c2ccccc12 strictly below 0.1 µg/mL?
*A* true

*Q* Now the same for CN(Cc1ccc(C(C)(C)C)cc1)Cc1cccc2ccsc12
*A* false

*Q* // query: CN(Cc1ccc(C(C)(C)C)cc1)Cc1cccc2c([N+](=O)[O-])cccc12
*A* true

*Q* Again, but for CCN(Cc1ccc2c(c1)CCCC2)Cc1cccc2ccccc12
*A* false

*Q* Query CN(Cc1ccc(C(C)(C)C)cc1)Cc1ccc(Cl)c2ccccc12 next
*A* true

*Q* Now give it for CN(Cc1ccc(C(C)(C)C)cc1)Cc1cccc2sccc12 too.
*A* true

*Q* Next: CN(Cc1ccc(C(C)(C)C)s1)Cc1cccc2ccccc12
*A* true

###

So I've got MIC readings for Trichophyton rubrum, take a look.

Worked examples, 4 compounds total:
Compound: CCN(Cc1ccc(C(C)(C)C)cc1)Cc1cccc2ccccc12
Val: 0.006 µg/mL
//
Compound: CC(c1cccc2ccccc12)N(C)Cc1ccc2ccccc2c1 (centres unmarked)
Val: 0.2 µg/mL
//
Compound: CCN(Cc1ccc(C(C)(C)C)cc1)Cc1csc2ccccc12
Val: 0.78 µg/mL
//
Compound: CCCCN(Cc1ccc(C(C)(C)C)cc1)Cc1cccc2ccccc12
Val: 3.13 µg/mL

Would you kindly look at the next entry?
*Q* Endpoint output: MIC of Cc1ccc(CN(C)Cc2cccc3ccccc23)cc1 . Value?
*A* 0.39 µg/mL

###

Test system: Trichophyton interdigitale
Assay: In vitro antifungal activity test (Test Example 1), Sabouraud's agar, Trichophyton interdigitale
Assay type: cell-based
Details: 168 h; (b) Trichophyton interdigitale; 27° C., 7 days; read-out: minimal growth-inhibitory concentration (MIC)
Property label: log10 MIC (log10 of the value in µg/mL)
Hey, these are logged values: log10 of MIC, µg/mL being the unit before logging.

Field: example entries. Status: answers known.
Compound: CN(Cc1ccc(C(C)(C)C)cc1)Cc1ccc(Cl)c2ccccc12
log10 MIC: -1.00

Compound: CN(Cc1ccc(C(C)(C)C)cc1)Cc1ccc(Br)c2ccccc12
log10 MIC: -0.70

Compound: CN(Cc1ccc(C2CCCCC2)cc1)Cc1cccc2ccccc12
log10 MIC: 0.19

Compound: CCc1ccc(CN(C)Cc2cccc3ccccc23)cc1
log10 MIC: -0.70

Compound: CCCCc1ccc(CN(C)Cc2cccc3ccccc23)cc1
log10 MIC: -0.70

Compound: CCCN(Cc1ccc(C(C)(C)C)cc1)Cc1cccc2ccccc12
log10 MIC: -0.70

Compound: Cc1cc(C)cc(CN(C)Cc2cccc3ccccc23)c1
log10 MIC: 1.10

Compound: Cc1ccc2ccccc2c1CN(C)Cc1ccc(C(C)(C)C)cc1
log10 MIC: -1.00

Compound: CN(Cc1ccc(C(C)(C)C)cc1)Cc1c(O)ccc2ccccc12.Cl
log10 MIC: 1.10

Compound: CCCCN(Cc1ccc(C(C)(C)C)cc1)Cc1cccc2ccccc12
log10 MIC: 0.80

The following compounds each have a reported value; give each one's log10 MIC.
1. Cc1ccc(CN(C)Cc2ccc(C(C)(C)C)cc2)c2ccccc12
2. CN(Cc1ccc(Cl)c(Cl)c1)Cc1cccc2ccccc12
3. Cc1cccc(CN(C)Cc2cccc3ccccc23)c1
4. CN(Cc1ccc(C(C)(C)C)cc1)Cc1cccc2ccccc12.Cl

*A*
-1.30
0.19
1.40
-2.22

*Q* For the compound shown here, CC(c1cccc2ccccc12)N(C)Cc1ccc(C(C)(C)C)cc1 (stereo not drawn) , give the reported log10 MIC.
*A* -1.60

###

Record: MIC reported on Trichophyton interdigitale.
One number for each entry, in µg/mL.

Example compounds with recorded MIC:
Compound: CN(Cc1cccc(C(F)(F)F)c1)Cc1cccc2ccccc12 [Example 14]
Readout unit: µg/mL
MIC: 6.25

Compound: CN(Cc1ccc(C(C)(C)C)cc1)Cc1cccc2c([N+](=O)[O-])cccc12 [Example 8]
Readout unit: µg/mL
MIC: 0.05

Compound: CC(C)c1ccc(CN(C)Cc2cccc3ccccc23)cc1 [Example 22]
Readout unit: µg/mL
MIC: 0.1

Compound: CCC(C)(C)c1ccc(CN(C)Cc2cccc3ccccc23)cc1 [Example 12]
Readout unit: µg/mL
MIC: 0.0125

Shifting focus to the compound that follows.
*Q* So what does the record say about MIC for CN(Cc1ccc(C(C)(C)C)cc1)Cc1ccc2ccccc2c1 [Example 10] ?
*A* 1.56

###

Test system: Trichophyton rubrum
Property label: log10(MIC) (log10 of the value in µg/mL)
All values: base-10 log of MIC in µg/mL.

Compound: CN(Cc1ccc2c(c1)CCCC2)Cc1cccc2ccccc12
log10(MIC): -1.00

Lab note: each compound below needs its log10(MIC) filled in.
1. CCc1ccc(CN(C)Cc2cccc3ccccc23)cc1
2. CN(Cc1cccc(C(F)(F)F)c1)Cc1cccc2ccccc12
3. CCCCc1ccc(CN(C)Cc2cccc3ccccc23)cc1
4. Cc1cccc(CN(C)Cc2cccc3ccccc23)c1
5. CN(Cc1ccc(C(C)(C)C)cc1)Cc1ccc2ccccc2c1
6. CCN(Cc1ccc2ccccc2c1)Cc1cccc2ccccc12
7. CN(Cc1ccc(Cl)c(Cl)c1)Cc1cccc2ccccc12

*A*
1. -1.00
2. 0.80
3. -1.00
4. 1.10
5. -0.41
6. -1.00
7. 0.19

Hi team, please reply with log10(MIC) for each item in this list.
1. CC(c1cccc2ccccc12)N(C)Cc1ccc(C(C)(C)C)cc1 (stereo not drawn)
2. CN(Cc1ccc(C(C)(C)C)cc1)Cc1ccc(F)c2ccccc12
3. CN(Cc1ccc(C(C)(C)C)cc1)Cc1csc2ccccc12
4. CN(Cc1ccc(C2CCCCC2)cc1)Cc1cccc2ccccc12
5. CN(Cc1ccc(C(C)(C)C)cc1)Cc1c(O)ccc2ccccc12.Cl

*A*
-2.52
-2.22
-1.30
0.19
0.80

Please supply log10(MIC) for each of the following items, keeping them in order.
1. Cc1ccc2ccccc2c1CN(C)Cc1ccc(C(C)(C)C)cc1
2. CN(Cc1ccc2ccccc2c1)Cc1ccc(F)c2ccccc12
3. Cc1ccc(CN(C)Cc2ccc3ccccc3c2)c2ccccc12
4. CC(C)c1ccc(CN(C)Cc2cccc3ccccc23)cc1
5. CCCN(Cc1ccc(C(C)(C)C)cc1)Cc1cccc2ccccc12

*A*
1: -1.00; 2: -0.70; 3: -0.41; 4: -1.90; 5: -0.70

src = patent US5021458A
